- assay-text: yeast display, Sf9 membrane polyspecificity reagent, FACS + sequencing; frameworks hold sequencing errors
assay-readout: polyreactivity (PSR sort gate)

Check out these entries, answers already filled in.
# sequence-code, assay-readout, recorded-measurement
data = [
    ("QVQHVESGGGLVQAGGSLRLSCAASGSTFYGNAMGWYRQAPGKEREFVASINSRGGITYYADSVKGRFTISRDNAKNTVYLQMNSLKPEDTAVYYCNTRVLSFYHYPYDYWGQGTQVTVSS", "polyreactivity (PSR sort gate)", "high polyreactivity"),
    ("QVQLVESGGGLVQAGGSLRLSCAASGSIFVIYSMGWYRQAPGKERELVARITKSGGSTYYADSVKGRFTISRDNAKITVYLQMNSLKPEDTAVYYCNVGYGGSSDGGYDYWGQGTQVTVSS", "polyreactivity (PSR sort gate)", "high polyreactivity"),
    ("QVQLVESGGGLVQAGGSLRVSCAASGIFPAYDMGWYRQAPGKDRELVASISADSGSTHYADSVKGRFTISRDNAKNTVYFQMNSLKPEDTAVYYCAADLGYRTGDYYWGQGTQVTVSS", "polyreactivity (PSR sort gate)", "low polyreactivity"),
    ("QVQHVESGGGLVQAGGSLRLSCAASGFTFYSYAMGWYRQSPGKERELVANITIGGSTYADSVKGRFTISRENAKNTVYLQMNSLKPEDTAVYYCAKQYGGRYGYWGQGTQVTVSS", "polyreactivity (PSR sort gate)", "low polyreactivity"),
]

Query sequence follows.
Field request: polyreactivity (PSR sort gate) | item: `QVQLQESVGGLVQAGGTQRLRCAASGNIFPTDRMGWYRQAPGKELEFVATISHGGSTNYADSVKGRFTISRDNAKNTVYLQMNSLKPEDTAVYYCAVWSLGRWRHYYWGQGTQVTVSS`
low polyreactivity
